Experiment: Plasma pharmacokinetics, Phase 2 Duchenne muscular dystrophy study
Assay type: in vivo, human
Conditions: human, oral, 20 mg/kg, 10, 10, 20 mg/kg TID, N = 20, mean, read-out: Cmax, Day 1
Experimental: FIG. 1 provides the plasma 3-[5-(2-fluoro-phenyl)-[1,2,4]oxadiazol-3-yl]-benzoic acid concentration-time profiles and PK parameters from 37 of 38 patients in a Phase 2 Duchenne muscular dystrophy study at 4-, 4-, and 8-mg/kg; 10-, 10-, and 20-mg/kg; and 20-, 20- and 40-mg/kg dose levels. The data from one patient was excluded from analysis due to insufficient data. […] The study drug dosing and sample collection times are recorded. […]
quantity-measured: Cmax

Problem: Specify reported Cmax for the compound shown: "O=C(O)c1cccc(-c2noc(-c3ccccc3F)n2)c1"
Solution: 27000 ng/mL

----------
assay: Plasma pharmacokinetics, Phase 2 Duchenne muscular dystrophy study; assay type: in vivo, human; settings: human, oral, 8 mg/kg, 4, 4, 8 mg/kg TID, N = 6, mean, read-out: Cmax, Day 28
quantity-measured: Cmax (ng/mL)
Enter your answer as a number in ng/mL; do not include the unit.

Problem: Look up and report measured Cmax for this entry: "O=C(O)c1cccc(-c2noc(-c3ccccc3F)n2)c1"
Solution: 11000

----------
experiment: Plasma pharmacokinetics, Phase 2 Duchenne muscular dystrophy study; type: in vivo, human; details: human, oral, 40 mg/kg, 20, 20, 40 mg/kg TID, N = 11, mean, read-out: AUC0-24, Day 28
quantity-measured: AUC(0-t)
Enter the number, and then the unit.

Problem: Annotate the compound "O=C(O)c1cccc(-c2noc(-c3ccccc3F)n2)c1" with its measured AUC(0-t).
Solution: 490 µg·h/mL

----------
experiment: Plasma pharmacokinetics, Phase 2 Duchenne muscular dystrophy study; assay type: in vivo, human; conditions: human, oral, 40 mg/kg, 20, 20, 40 mg/kg TID, N = 11, mean, read-out: Cmax, Day 28
quantity-measured: Cmax (ng/mL)
API: value field is a number in ng/mL; no unit string.

Problem: Write down Cmax measured for item "O=C(O)c1cccc(-c2noc(-c3ccccc3F)n2)c1"
Solution: 46000

----------
experiment: Plasma pharmacokinetics, Phase 2 Duchenne muscular dystrophy study; format: in vivo, human; conditions: human, oral, 20 mg/kg, 10, 10, 20 mg/kg TID, N = 20, mean, read-out: AUC0-24, Day 28
quantity-measured: AUC(0-t) (µg·h/mL)
Form entry: value (µg·h/mL) — number only.

Problem: Give reported AUC(0-t) value for "O=C(O)c1cccc(-c2noc(-c3ccccc3F)n2)c1"
Solution: 235

FYI, the data here is from patent US9226919B2.
